- measured target: Glucose-dependent insulinotropic receptor (Homo sapiens, UniProt Q8TDV5)
- Sequence (Q8TDV5 whole entry): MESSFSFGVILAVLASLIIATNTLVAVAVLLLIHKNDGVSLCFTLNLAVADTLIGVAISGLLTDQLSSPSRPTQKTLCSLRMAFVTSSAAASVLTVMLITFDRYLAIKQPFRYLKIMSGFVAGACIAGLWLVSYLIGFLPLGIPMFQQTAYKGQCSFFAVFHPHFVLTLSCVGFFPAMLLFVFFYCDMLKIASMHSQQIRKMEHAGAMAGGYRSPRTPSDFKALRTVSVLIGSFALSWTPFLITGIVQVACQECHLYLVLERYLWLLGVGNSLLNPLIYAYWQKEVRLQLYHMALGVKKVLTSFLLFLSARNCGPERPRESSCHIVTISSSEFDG
- method summary: Agonist activity at human GPR119 overexpressed in CHO cells assessed as increase in cellular cAMP production by HTRF method
metric: EC50 (nM)

Reference set (2 entries):
{"molecule": "COC(=O)C1(Cc2ccccc2)CCc2cnc3c(-c4ccc(C(F)(F)F)cc4)cnn3c21 (racemic)", "EC50 (nM)": 2}
{"molecule": "CCOC(=O)[C@](C)(Cc1ccccc1)c1c(Cl)cnc2c(-c3ccc(C(F)(F)F)cc3)cnn12", "EC50 (nM)": 3}

[A] CCOC(=O)[C@]1(Cc2ccccc2)CCc2cnc3c(-c4ccc(C(F)(F)F)cc4)cnn3c21
[B] COC(=O)[C@@]1(Cc2cccc(F)c2)CCc2cnc3c(-c4ccc(C(F)(F)F)cc4)cnn3c21
[C] CCOC(=O)C1(Cc2ccccc2)CCc2cnc3c(-c4ccc(Oc5ccccc5)cc4)cnn3c21 (racemic)
[D] CCOC(=O)C1(Cc2ccccc2)c2c(cnc3c(-c4ccc(C(F)(F)F)cc4)cnn23)CN1C (racemic)
[E] COC(=O)C1(Cc2ccccc2)CCCCc2cnc3c(-c4ccc(C(F)(F)F)cc4)cnn3c21 (racemic)
Task: Your job: order these 5 records by EC50, ascending. Give your ranking as a list of the labels in the requested order.
Output: B, C, A, E, D

* * *

- System: Mus musculus
- method summary: Dose normalized AUC in po dosed Balb/C mouse
- Format: ADME, organism-based
- experimental setup: in vivo
metric: AUC/dose (µM·h)

Reference set (5 entries):
{"smiles entry": "COCCN(C)C(=O)[C@@]1(Cc2cccc(F)c2)NCc2cnc3c(-c4ccc(C(F)(F)F)cc4)cnn3c21", "AUC/dose (µM·h)": 0.07}
{"smiles entry": "COC(=O)[C@@]1(Cc2cccc(F)c2)NCc2cnc3c(-c4ccc(C(F)(F)F)cc4)c(CO)nn3c21", "AUC/dose (µM·h)": 7.65}
{"smiles entry": "COC(=O)[C@@]1(Cc2cccc(F)c2)NCc2cnc3c(-c4ccc(C(F)(F)F)cc4)cnn3c21", "AUC/dose (µM·h)": 0.31}
{"smiles entry": "CCOC(=O)[C@](C)(Cc1ccccc1)c1c(C)cnc2c(-c3ccc(C(F)(F)F)cc3)cnn12", "AUC/dose (µM·h)": 0.6}
{"smiles entry": "[2H]C([2H])(O)c1nn2c3c(cnc2c1-c1ccc(C(F)(F)F)cc1)CN[C@]3(Cc1cccc(F)c1)C(=O)OC", "AUC/dose (µM·h)": 7.89}

[I] CCOC(=O)[C@@]1(Cc2ccccc2)CCc2cnc3c(-c4ccc(C(F)(F)F)cc4)cnn3c21
[II] [2H]C([2H])(O)c1nn2c3c(cnc2c1-c1ccc(C(F)(F)F)nc1)CN[C@]3(Cc1cccc(F)c1)C(=O)OC
Task: Sorting ascending by AUC/dose, which comes first: I or II ? State the label of the item chosen.
Output: I

* * *

- method summary: Solubility of the compound at pH 6.8
- Assay type: physicochemical
- experimental setup: buffer
metric: solubility (µM)

{"smiles entry": "COC(=O)[C@@]1(Cc2cccc(F)c2)NCc2cnc3c(-c4ccc(C(F)(F)F)cc4)c(C(N)=O)nn3c21", "solubility (µM)": 39}
{"smiles entry": "OCc1nn2c3c(cnc2c1-c1ccc(C(F)(F)F)nc1)CN[C@]3(Cc1cccc(F)c1)C1CC1", "solubility (µM)": 36}
{"smiles entry": "OCc1nn2c3c(cnc2c1-c1ccc(C(F)(F)F)cc1)CN[C@]3(Cc1cccc(F)c1)C1CC1", "solubility (µM)": 6}

[P] COC(=O)[C@@]1(Cc2cccc(F)c2)NCc2cnc3c(-c4ccc(C(F)(F)F)nc4)c(CO)nn3c21
[Q] [2H]C([2H])(O)c1nn2c3c(cnc2c1-c1ccc(C(F)(F)F)cc1)CN[C@]3(Cc1cccc(F)c1)C(=O)OC
Task: Sorting ascending by solubility, which comes first: P or Q ? State the label of the item chosen.
Output: Q

[1] COC(=O)[C@@]1(Cc2cccc(F)c2)NCc2cnc3c(-c4ccc(C(F)(F)F)cc4)c(CO)nn3c21
[2] [2H]C([2H])(O)c1nn2c3c(cnc2c1-c1ccc(C(F)(F)F)nc1)CN[C@]3(Cc1cccc(F)c1)C(=O)OC
Task: solubility comparison. Which is larger, 1 or 2 ? State the label of the item chosen.
Output: 2
